- ASSAY SYSTEM: human MK2 (Homo sapiens, UniProt P49137)
- Sequence (P49137 whole entry): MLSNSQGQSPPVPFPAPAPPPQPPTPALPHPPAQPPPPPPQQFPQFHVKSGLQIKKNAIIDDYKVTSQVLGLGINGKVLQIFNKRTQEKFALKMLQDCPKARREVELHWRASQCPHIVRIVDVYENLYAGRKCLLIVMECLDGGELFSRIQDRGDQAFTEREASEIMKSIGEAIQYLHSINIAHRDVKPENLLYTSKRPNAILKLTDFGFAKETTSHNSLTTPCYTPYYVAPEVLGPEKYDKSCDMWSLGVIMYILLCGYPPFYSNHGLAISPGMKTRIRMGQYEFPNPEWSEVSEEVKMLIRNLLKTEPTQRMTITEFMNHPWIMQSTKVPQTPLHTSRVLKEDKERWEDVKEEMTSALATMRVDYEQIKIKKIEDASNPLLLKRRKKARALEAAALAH
- ASSAY INFO: MAPKAPK2 (or MK2) Kinase Assay
- TEST PARAMETERS: activated MAPKAPK2, Hsp27 peptide substrate, 5 μM ATP, TR-FRET
OBSERVABLE: IC50 (µM)
Please reply with the bare figure in µM and do not write the unit itself.

Look over these answered cases.
| SMILES DATA | OBSERVABLE | RESULT |
| --- | --- | --- |
| N#Cc1cc(-c2ccnc(/C=C/c3ccccc3)c2)[nH]c1C1CCNCC1 | IC50 | 0.21 |
| CN1CCN(c2ccc(-c3cc(-c4cc(C(N)=O)c(N5CCNCC5)[nH]4)ccn3)cn2)CC1 | IC50 | 0.15 |
| Cc1[nH]c(-c2ccnc(/C=C/c3ccc(CN4CCOCC4)cc3)c2)cc1C#N | IC50 | 0.29 |
| N#Cc1cc(-c2ccnc(/C=C/c3ccccc3)c2)[nH]c1CCN | IC50 | 0.15 |

Q: Which IC50 is listed for NC(=O)c1cc(-c2ccnc(-c3ccc(N4CCN(Cc5ccccc5)CC4)nc3)c2)[nH]c1N1CCNCC1 ?
Ans: 0.2

Q: Please look up its IC50: NC(=O)c1cc(-c2ccnc(-c3ccc(N4CCCCC4)nc3)c2)[nH]c1N1CCNCC1
Ans: 0.16

Q: Request the reported IC50 associated with NCCc1[nH]c(-c2ccnc(/C=C/c3ccccc3)c2)cc1C(=O)O
Ans: 0.08

----------
- ASSAY SYSTEM: human MK2 (Homo sapiens, UniProt P49137)
- ASSAY INFO: MAPKAPK2 (or MK2) Kinase Assay
- TEST PARAMETERS: activated MAPKAPK2, Hsp27 peptide substrate, 5 μM ATP, TR-FRET
Where a name gives a salt, the structure may show the parent alone.
Reported pIC50 values for a set of molecules
As a rule, pIC50 stands for the negative log10 of the concentration, concentration in M.

Q: Please look up its pIC50: NC(=O)c1cc(-c2ccnc(/C=C/c3ccccc3)c2)[nH]c1C1=CCNCC1
Ans: 6.57

Q: Look up pIC50 for this molecule: NC(=O)c1cc(-c2ccnc(/C=C/c3ccccc3)c2)[nH]c1N1CCNCC1
Ans: 6.92

Q: Requested read-out: pIC50. Entry: NC(=O)c1cc(-c2ccnc(/C=C/c3cccnc3)c2)[nH]c1N1CCNCC1
Ans: 6.85

Q: Fill in the blank: the reported pIC50 of N#Cc1cc(-c2ccnc(-c3cnc(N4CCCOCC4)nc3)c2)[nH]c1N1CCNCC1 [Example 118, trifluoroacetate] is ____.
Ans: 7.15

----------
- ASSAY SYSTEM: human MK2 (Homo sapiens, UniProt P49137)
- Construct: made in house
- ASSAY INFO: MAPKAPK2 (or MK2) Kinase Assay
- Assay type: biochemical
- TEST PARAMETERS: activated MAPKAPK2, Hsp27 peptide substrate, 5 μM ATP, TR-FRET
Structures can show the parent of a compound that is named as a salt.
We label by threshold. Values of IC50 strictly beneath 100 nM are met. Values of 100 nM and up are not met.

Previously resolved entries follow.
| COMPOUND | QUALITATIVE LABEL |
| --- | --- |
| NC(=O)c1cc(-c2ccnc(-c3ccc(S(=O)(=O)N4CCOCC4)cc3)c2)[nH]c1N1CCNCC1 [Example 51] | met |
| NC(=O)c1cc(-c2ccnc(Nc3cccc(S(=O)(=O)N4CCOCC4)c3)c2)[nH]c1N1CCNCC1 [Example 93] | met |
| N#Cc1cc(-c2ccnc(/C=C/c3ccc(C(=O)N4CCOCC4)cc3)c2)[nH]c1N1CCNCC1 [Example 75] | not met |
| NC(=O)c1cc(-c2ccnc(/C=C/c3ccc(F)cc3)c2)[nH]c1N1CCNCC1 [Example 9] | not met |
| NC(=O)c1cc(-c2ccnc(-c3ccc(C(=O)NC4CCCC4)cc3)c2)[nH]c1N1CCNCC1 [Example 55] | not met |

As a next step, examine the compound that follows.
Q: Below 100 nM on IC50? Entry CN1CCC(Oc2ccc(-c3cc(-c4cc(C#N)c(N5CCNCC5)[nH]4)ccn3)cn2)CC1 [Example 105, trifluoroacetate]
Ans: met

All figures here come from patent US20100105664A1.
